meta.source: PubChem BioAssay AID1159580

- test-summary: chemical genetic growth profiling, strain panel (AID 1159580);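 also: tested at 20 µM; growth read once vehicle control cultures reached saturation at 30 °C; lower values mean less growth of the strain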
- study-conditions: S. cerevisiae deletion strains, growth OD, locus YBR171W, strain sec66, stronger effect = lower value
About 2,000 (36%) of roughly 5,500 compounds were called active. About 18% were inconclusive and are not listed. The list shows a part of the results.
Checkbox rule: normalized growth lower than 1 = satisfied; normalized growth not lower than 1 = not satisfied.

CN(C)C(=S)SSC(=S)N(C)C: satisfied
COc1cc(NS(=O)(=O)c2ccc(N)cc2)nc(OC)n1: satisfied
COc1ccc2cc([C@H](C)C(=O)O)ccc2c1: satisfied
CC(C)OC(=O)C(C)(C)Oc1ccc(C(=O)c2ccc(Cl)cc2)cc1: satisfied
CC1=C(/C=C/C(C)=C/C=C/C(C)=C/C=C/C=C(C)/C=C/C=C(C)/C=C/C(=O)[C@]2(C)C[C@@H](O)CC2(C)C)C(C)(C)C[C@H](O)C1: not satisfied
COc1cc2c(cc1OC)[C@@H]1C(=O)c3ccc(OC)c(CC=C(C)C)c3O[C@@H]1CO2: not satisfied
COc1ccc2c(c1)O[C@@H]1COc3cc(OC)c(OC)cc3[C@@H]1C2=O: satisfied
